The values you see were collected from paper PMC11335192.

biological target: human GAT1 (hGAT1) (Homo sapiens); experiment: automated whole-cell patch clamp (Patchliner) on CHO cells overexpressing hGAT1
Sequence (P30531 whole entry): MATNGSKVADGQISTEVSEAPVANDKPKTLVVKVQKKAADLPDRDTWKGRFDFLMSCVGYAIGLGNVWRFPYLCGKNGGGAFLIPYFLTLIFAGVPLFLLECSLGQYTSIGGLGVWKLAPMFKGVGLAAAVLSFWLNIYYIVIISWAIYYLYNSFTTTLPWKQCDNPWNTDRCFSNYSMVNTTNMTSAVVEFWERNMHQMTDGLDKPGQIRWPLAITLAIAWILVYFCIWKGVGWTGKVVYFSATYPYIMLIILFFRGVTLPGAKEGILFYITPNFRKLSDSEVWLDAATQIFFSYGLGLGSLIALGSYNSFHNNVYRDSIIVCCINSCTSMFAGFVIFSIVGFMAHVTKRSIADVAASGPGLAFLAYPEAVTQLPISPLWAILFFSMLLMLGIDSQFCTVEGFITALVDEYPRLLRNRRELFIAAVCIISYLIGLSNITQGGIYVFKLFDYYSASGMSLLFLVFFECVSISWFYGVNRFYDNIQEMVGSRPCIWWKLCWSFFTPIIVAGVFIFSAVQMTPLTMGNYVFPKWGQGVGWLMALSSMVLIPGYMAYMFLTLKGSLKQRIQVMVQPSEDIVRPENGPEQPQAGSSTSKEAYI
reported property: EC50

Value wanted: EC50 (human GAT1 (hGAT1) (Homo sapiens)) of entry C[N+](C)(C)CC(=O)O [Betaine] ~27 mM

----------
Biological target: UniProt:P27799
Sequence (P27799 1-614): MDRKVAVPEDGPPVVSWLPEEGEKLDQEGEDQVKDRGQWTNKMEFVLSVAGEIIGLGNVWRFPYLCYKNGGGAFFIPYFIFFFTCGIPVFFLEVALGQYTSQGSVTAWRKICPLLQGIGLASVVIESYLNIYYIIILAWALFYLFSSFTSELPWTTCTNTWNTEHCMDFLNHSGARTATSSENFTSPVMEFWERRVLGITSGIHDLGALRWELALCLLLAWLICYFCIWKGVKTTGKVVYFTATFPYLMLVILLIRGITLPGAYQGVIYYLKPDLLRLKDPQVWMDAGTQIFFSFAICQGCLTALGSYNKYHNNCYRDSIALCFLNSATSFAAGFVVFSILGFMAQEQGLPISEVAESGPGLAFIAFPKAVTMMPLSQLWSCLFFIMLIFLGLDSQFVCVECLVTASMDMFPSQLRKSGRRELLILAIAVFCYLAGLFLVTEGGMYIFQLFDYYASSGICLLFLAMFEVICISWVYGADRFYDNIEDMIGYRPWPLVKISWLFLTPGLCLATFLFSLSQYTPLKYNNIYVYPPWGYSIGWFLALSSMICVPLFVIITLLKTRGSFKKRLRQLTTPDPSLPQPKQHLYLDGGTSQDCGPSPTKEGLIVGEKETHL
Assay: TEVC transport currents in Xenopus oocytes
reported property: EC50 (µM)
Number only, in µM; omit the unit.

Return reported EC50; argument: C[N+](C)(C)CC(=O)O 1690
